# Tested on: KB-3-1
# experiment summary: Cytotoxic Profiling of Annotated Libraries Using Quantitative High-Throughput Screening (AID 1296008); also: % is scaled to controls: 0 for no effect and ±100 for the full control effect; nearly all actives have a fitted effect of over 60% in size
# measurement parameters: Five cell lines viability, CellTiter-Glo ATP luminescence, 48-72 h; active compounds read low
Inconclusive results are not listed. Active and inactive are the calls of the source. Calls follow the shape of the dose curve; as a rule, active = well fitted inhibition curve with a large enough effect; inconclusive = small, poorly fitted or top-dose-only effect; inactive = flat fitted curve, though single readings scatter.
Assignment: determine reported max response for the given compounds.

- test smiles: "CC(C)c1noc(C2CCN(c3ncnc(Nc4ccc(S(C)(=O)=O)cc4F)c3[N+](=O)[O-])CC2)n1"
  observable: "max response"
  measured: "-4.1% (inactive)"
- test smiles: "C=C1/C(=C/C=C2\\CCC[C@]3(C)[C@@H]([C@H](C)CC[C@@H](O)C(C)(C)O)CC[C@@H]23)C[C@@H](O)C[C@@H]1O"
  observable: "max response"
  measured: "-22.3% (inactive)"
- test smiles: "CC#C[C@@H](CC(=O)O)c1ccc(OCc2ccc(CN3CCC4(C=Cc5ccccc54)CC3)s2)cc1"
  observable: "max response"
  measured: "-9.33% (inactive)"

// switching to the query compound
Query :: Consider the compound `COc1cc2ncnc(Nc3ccc(O)c(Br)c3)c2cc1OC` . State its measured max response.
Result :: 0.483% (inactive)

* * *

# System: C33A
# experiment summary: Primary qHTS to identify gynecologic anti-cancer compounds using libraries of approved drugs and bioactive compounds (AID 1345084); also: % is scaled to controls: 0 for no effect and ±100 for the full control effect; nearly all actives have a fitted effect of over 55% in size
# measurement parameters: Gynecologic cancer cell panel viability, ATPlite luminescence, 48 h; series mostly up to 57.5 µM
Inconclusive results are not listed. Active and inactive are the calls of the source. Calls come from the whole dose curve; as a rule, active = well fitted cell-killing curve with a large enough effect; inconclusive = small, poorly fitted or top-dose-only effect, or effect the other way; inactive = flat fitted curve, though single readings scatter.
observable: outcome

Illustrative cases are given below, each with its answer.
- molecule: "CC(=O)O[C@@H]1CC[C@@]2(C)[C@H](CC[C@@H]3[C@@H]2C[C@H](OC(C)=O)[C@]2(C)[C@@H](C(C)=O)CC[C@@H]32)C1"
  observable: "outcome"
  measured: "inactive"
- molecule: "C=C1C(=O)O[C@@H]2/C=C(\\CO)CC/C=C(/C=O)C[C@H](O)[C@@H]12"
  observable: "outcome"
  measured: "inactive"
- molecule: "COc1ccc(C2(N(C)C(=O)c3ccc(NC(=O)c4ccco4)cc3)CCOCC2)cc1"
  observable: "outcome"
  measured: "inactive"
- molecule: "COc1cc(OC)c(NC(=O)c2ccc(Cc3cc4c(cc3C)C(C)(C)CCC4(C)C)o2)c(OC)c1"
  observable: "outcome"
  measured: "inactive"
- molecule: "CC(C)C[C@H](C(=O)O)c1cc(-c2ccc(C(F)(F)F)cc2)cc(-c2ccc(C(F)(F)F)cc2)c1"
  observable: "outcome"
  measured: "inactive"
- molecule: "COc1ccc(N(C(=O)Nc2c(C)cccc2C)c2cc(Nc3ccc(N4CCN(C)CC4)cc3)ncn2)c(OC)c1"
  observable: "outcome"
  measured: "inactive"

Provide outcome for all items below, preserving their order.
1. O=C([C@@H]1CCCN(c2ccc3[nH]c(C4(n5cc(Cl)cn5)CC4)nc3n2)C1)N1CCCC1
2. CCCCNc1ncc(-c2ccc(CN3CCOCC3)cn2)c(NC2CCC(O)CC2)n1 (stereo not drawn)

Result ::
1. inactive
2. inactive

* * *

# Tested on: Tov-21-G
# experiment summary: Primary qHTS to identify gynecologic anti-cancer compounds using libraries of approved drugs and bioactive compounds (AID 1345084); also: % is scaled to controls: 0 for no effect and ±100 for the full control effect; nearly all actives have a fitted effect of over 55% in size
# measurement parameters: Gynecologic cancer cell panel viability, ATPlite luminescence, 48 h; series mostly up to 57.5 µM
Results filed as inconclusive are left out. Activity calls are given as the source filed them. Calls follow the shape of the dose curve; as a rule, active = well fitted cell-killing curve with a large enough effect; inconclusive = small, poorly fitted or top-dose-only effect, or effect the other way; inactive = flat fitted curve, though single readings scatter.
Give one outcome, nothing more. List: Yes (active), No (inactive)

Answered examples (6):
- molecule: "COc1cc(/C=C/C(=O)NCCn2c(C(F)(F)F)cc3ccccc32)cc(OC)c1OC"
  classification: "No"
- molecule: "Cn1cc(-c2ccc(F)c(C(F)(F)F)c2)nc1C1CCN(c2ncnc3[nH]ncc23)CC1"
  classification: "No"
- molecule: "COc1ccc([C@H]2Cc3cccc(O)c3C(=O)O2)cc1OC"
  classification: "No"
- molecule: "Cc1cn2cc(C(=O)N(C)CCO)cc(NC3CCOc4cccc(C)c43)c2n1 (stereo unspecified)"
  classification: "No"
- molecule: "C/C=C/[C@@H]1C=C[C@@H]2C[C@H](C)CC[C@H]2[C@]1(C)/C(O)=C1/C(=O)[C@@H](CO)N(C)C1=O"
  classification: "No"
- molecule: "COc1cc2c(cc1OCCCN1CCCC1)N=C(N)C21CCC1"
  classification: "No"

Query :: Dear all, I need the recorded test outcome for `CC(C)c1cc(-c2ccc(F)c3ccccc23)nc(N)n1` , thank you.
Result :: No

Query :: Dear all, I need the recorded test outcome for `O=c1[nH]c2ccc(C#CCN3CCC(Cc4ccccc4)CC3)cc2[nH]1` , thank you.
Result :: No

Query :: Dear all, I need the recorded test outcome for `CC(C)S(=O)(=O)NC[C@@H]1CC(c2ccc(N3CCCC3)c(F)c2)=NO1` , thank you.
Result :: No

Query :: Dear all, I need the recorded test outcome for `O=C(c1ccc(Cl)cc1)N1CCN(c2ccnc3cc(Cl)ccc23)CC1` , thank you.
Result :: No

* * *

# Tested on: Zika virus NS2B-NS3 protease (linked construct)
# experiment summary: Primary screen NINDS Rhodamine qHTS for Zika virus inhibitors (AID 1347160); also: nearly all actives have a fitted effect of over 55% in size
# measurement parameters: purified NS2B-NS3 protease, Rhodamine110 substrate fluorescence; series mostly up to 57.1 µM
Results filed as inconclusive are left out. Calls of active or inactive are those of the source. Calls come from the whole dose curve; as a rule, active = well fitted inhibition curve with a large enough effect; inconclusive = small, poorly fitted or top-dose-only effect; inactive = no such curve, though single readings can be large or run the other way.
Give one outcome, nothing more. List: T for active, F for inactive

- molecule: "CNC(=O)c1ccc2c(c1)CCO[C@H]2CCN1CCN(c2ccc(OC)cc2)CC1"
  classification: "F"
- molecule: "CC1=CC2/C=C(\\C)CCC(O)C(=O)C(O)CC(=O)C23C(=O)NC(CC(C)C)C3C1C (centres undefined)"
  classification: "F"
- molecule: "COc1ccc(C(=O)Nc2c(Cl)cncc2Cl)cc1OC1CCCC1"
  classification: "F"
- molecule: "N#Cc1ccc(N2N=C3c4ccc(C(=O)O)cc4CC[C@@H]3[C@@H]2C2CCCC2)cc1Cl"
  classification: "T"
- molecule: "O=c1[nH]cnc2c([C@@H]3N[C@H](CO)[C@@H](O)[C@H]3O)c[nH]c12"
  classification: "F"

Query :: Dear all, I need the recorded test outcome for `Cc1nc(-c2cn3c(n2)-c2ccc(-c4cnn(C(C)(C)C(N)=O)c4)cc2OCC3)n(C(C)C)n1` , thank you.
Result :: F

Query :: Dear all, I need the recorded test outcome for `C=C1CC[C@H]2C(=C)CC[C@H]3C(=C)C(=O)O[C@@H]3[C@@H]12` , thank you.
Result :: F

Query :: Dear all, I need the recorded test outcome for COC(=O)CC(O)CC(O)/C=C/c1c(C)ccc2c1C(OC(C)=O)CC(C)C2 (centres undefined) , thank you.
Result :: F

Query :: Dear all, I need the recorded test outcome for `C/C=C/C=C/C(=O)O[C@@H]1C=C2COC(=O)[C@]2(O)[C@@]2(C)CCCC(C)(C)[C@H]12` , thank you.
Result :: F

* * *

# assay system: Phospholipid hydroperoxide glutathione peroxidase GPX4 (Homo sapiens)
# experiment summary: Primary qHTS Assay for Inhibitors of Recombinant Selenoprotein Glutathione Peroxidase 4 (GPX4) (AID 1845192); also: % is scaled to controls: 0 for no effect and ±100 for the full control effect; nearly all actives have a fitted effect of over 65% in size
# measurement parameters: recombinant GPX4, GR-coupled NADPH fluorescence, 15 min; series mostly up to 50 µM
Records with an inconclusive call do not appear. Active and inactive are the calls of the source. Calls come from the whole dose curve; as a rule, active = well fitted inhibition curve with a large enough effect; inconclusive = small, poorly fitted or top-dose-only effect; inactive = flat fitted curve, though single readings scatter.

- compound: "CC(C)(C)c1ccc(C(=O)Nc2cc(Cl)c(Br)cc2C(=O)O)cc1"
  outcome: "inactive"
- compound: "CC(C)CC(=O)c1c(O)cc2c(c1O)C(CC(C)C)C1=C(O2)C(C)(C)C(=O)C(C)(C)C1=O (stereo not drawn)"
  outcome: "inactive"
- compound: "Cn1cc(-c2cnn3c(N)c(Br)c([C@@H]4CCCNC4)nc23)cn1"
  outcome: "inactive"

* * *

# Test system: JEG-3
# experiment summary: Primary qHTS to identify gynecologic anti-cancer compounds using libraries of approved drugs and bioactive compounds (AID 1345084); also: % is scaled to controls: 0 for no effect and ±100 for the full control effect; nearly all actives have a fitted effect of over 55% in size
# measurement parameters: Gynecologic cancer cell panel viability, ATPlite luminescence, 48 h; series mostly up to 57.5 µM
Records with an inconclusive call do not appear. The source made the active and inactive calls. Calls come from the whole dose curve; as a rule, active = well fitted cell-killing curve with a large enough effect; inconclusive = small, poorly fitted or top-dose-only effect, or effect the other way; inactive = flat fitted curve, though single readings scatter.
observable: activity change, negative = cytotoxicity

Illustrative cases are given below, each with its answer.
- molecule: "CNC(=O)COC(=O)N1CCC(CCc2ccc(Cl)cc2)CC1"
  measured: "inactive"
- molecule: "CC1(C)Oc2ncnc(N)c2N=C1c1ccc(C23CCC(CC(=O)O)(CC2)CC3)cc1"
  measured: "inactive"
- molecule: "CCCCCCCCC(=O)N[C@H](CN1CCCC1)[C@H](O)c1ccc2c(c1)OCCO2"
  measured: "inactive"
- molecule: "CNC(=O)c1ccc2c(c1)CCO[C@H]2CCN1CCN(c2ccc(OC)cc2)CC1"
  measured: "inactive"
- molecule: "CC(=O)O[C@@H]1CC[C@@]2(C)[C@H](CC[C@@H]3[C@@H]2C[C@H](OC(C)=O)[C@]2(C)[C@@H](C(C)=O)CC[C@@H]32)C1"
  measured: "inactive"

Provide activity change, negative = cytotoxicity for all items below, preserving their order.
1. CC(C)n1c(=O)c(C(=O)NC2CC3CCC(C2)N3C[C@@H](O)CN(C)S(C)(=O)=O)cc2ccccc21 (some centres undefined)
2. COc1ccc([C@H](Cc2ccncc2)c2ccccc2)cc1OC1CCCC1
3. COc1ccc(C2Oc3c(OC)cc(CCCO)cc3C2COC2OC(CO)C(O)C(O)C2O)cc1OC (centres undefined)
4. C[C@@H](c1ccc2nccn2c1)n1nnc2ncc(-c3cnn(C)c3)nc21
5. CCCCCCCOc1cc2c(cc1/C(C)=C/c1ccc(C(=O)O)cc1)C(C)(C)CCS2(=O)=O
6. O=C(NS(=O)(=O)c1ccc(Br)s1)c1ccc(Cl)cc1Cl

Result ::
1: inactive; 2: inactive; 3: inactive; 4: inactive; 5: inactive; 6: inactive

Provide activity change, negative = cytotoxicity for all items below, preserving their order.
1. O=C1C(Cc2ccc(O)cc2)N2C(=O)CCN(C(=O)NCc3ccccc3)C2CN1Cc1cccc2ccccc12 (centres undefined)
2. CC1(C)CCC(C)(C)c2cc(C#Cc3ccc(C(=O)O)cc3)ccc21
3. CC(=O)O[C@H]1C[C@H](OC(C)=O)[C@]2(C)[C@H](CC[C@@]34O[C@@H]3C3=C(C)C(=O)O[C@@H]3C[C@H]42)C1(C)C
4. C[C@@H]1CCCN1CCc1cc2cc(-c3ccc(C#N)cc3)ccc2o1
5. C/C(=C\CCC(C)C1=CCC2(C)OC3=C(CC12)C(=O)C(O)CC3)CO (centres undefined)
6. C=CC(C)(O)CC[C@@H]1[C@@]2(C)CCCC(C)(C)C2CC[C@@]1(C)O (some centres undefined)
7. CCC(C)CNCC(=O)N1CCc2sccc2C1COc1cccc(C)c1 (centres undefined)
8. Cc1ccc(NC(=O)N2CCN(c3nc(N)nc4sc(-c5cccnc5)nc34)CC2)cc1

Result ::
inactive
inactive
inactive
inactive
inactive
inactive
inactive
inactive
